- Test system: PC3 cells
- EXPERIMENT NOTES: PC3 growth inhibition (Cell-titer glo, 72 hours)
- Type: cell-based
- CONDITIONS USED: Homo sapiens, PC-3, 72 h, read-out: Percent Viability, PC3 cells, compound concentration 1.667 μM, 72 hours
Attribute: viability at 1.667 µM

[
  {
    "STRUCTURE AS SMILES": "CCOc1cc(-c2ccc(OC)nc2)nc2cc(C(=O)NCCCc3nnc[nH]3)ccc12",
    "UNIT OF MEASURE": "%",
    "viability at 1.667 µM": 2
  },
  {
    "STRUCTURE AS SMILES": "CCOc1cc(-c2ccnc(OC)c2)nc2cc(C(=O)NCCc3cnn[nH]3)ccc12",
    "UNIT OF MEASURE": "%",
    "viability at 1.667 µM": 19
  },
  {
    "STRUCTURE AS SMILES": "CCOc1cc(-c2ccc(F)cc2)nc2cc(C(=O)NCCn3cncn3)ccc12",
    "UNIT OF MEASURE": "%",
    "viability at 1.667 µM": 86
  },
  {
    "STRUCTURE AS SMILES": "CCOc1cc(-c2ccnc(OC)c2)nc2cc(C(=O)NCCc3c[nH]nc3C)ccc12",
    "UNIT OF MEASURE": "%",
    "viability at 1.667 µM": 2
  },
  {
    "STRUCTURE AS SMILES": "CCOc1cc(-c2cncc(OC)c2)nc2cc(C(=O)NCCCc3nnc[nH]3)ccc12",
    "UNIT OF MEASURE": "%",
    "viability at 1.667 µM": 1
  },
  {
    "STRUCTURE AS SMILES": "CCOc1nc(-c2ccc(F)cc2)nc2cc(C(=O)NCCCc3ncc[nH]3)ccc12",
    "UNIT OF MEASURE": "%",
    "viability at 1.667 µM": 2
  },
  {
    "STRUCTURE AS SMILES": "COCc1nc(-c2ccc(Cl)cc2)nc2cc(C(=O)NCCCc3ncc[nH]3)ccc12",
    "UNIT OF MEASURE": "%",
    "viability at 1.667 µM": 0
  },
  {
    "STRUCTURE AS SMILES": "CCOc1cc(-c2ccc(C)nc2OC)nc2cc(C(=O)NCCCc3nc[nH]n3)ccc12",
    "UNIT OF MEASURE": "%",
    "viability at 1.667 µM": 2
  }
]

###

Attribute: inhibition at 1 µM
- ASSAYED SYSTEM: hNAMPT protein (Homo sapiens (Human))
- Sequence (P43490 whole entry): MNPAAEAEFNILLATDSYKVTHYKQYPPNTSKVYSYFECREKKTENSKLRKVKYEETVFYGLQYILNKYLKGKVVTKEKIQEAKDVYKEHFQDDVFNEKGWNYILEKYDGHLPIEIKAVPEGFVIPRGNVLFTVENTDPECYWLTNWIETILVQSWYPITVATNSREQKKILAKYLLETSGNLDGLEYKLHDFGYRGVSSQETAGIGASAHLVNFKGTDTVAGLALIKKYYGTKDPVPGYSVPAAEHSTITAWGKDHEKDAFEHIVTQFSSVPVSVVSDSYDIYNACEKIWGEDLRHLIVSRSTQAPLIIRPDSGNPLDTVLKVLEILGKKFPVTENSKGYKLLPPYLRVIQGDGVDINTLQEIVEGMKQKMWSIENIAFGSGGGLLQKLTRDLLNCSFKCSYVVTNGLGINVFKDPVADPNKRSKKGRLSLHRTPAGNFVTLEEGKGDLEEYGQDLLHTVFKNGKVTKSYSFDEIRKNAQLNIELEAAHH
- EXPERIMENT NOTES: NAMPT enzyme assay (TR-FRET/HTRF with BodiPY ligand)
- Type: binding
- CONDITIONS USED: NAMPT inhibition at compound concentration 1 μM; read-out: Percent Inhibition

[
  {
    "COMPOUND": "CCOc1cc(-c2ccc(=O)n(C)c2)nc2cc(C(=O)NCCc3c[nH]nc3C)ccc12 [Compound I-98]",
    "ASSAYED SYSTEM": "hNAMPT protein (Homo sapiens (Human))",
    "inhibition at 1 µM": "99%"
  },
  {
    "COMPOUND": "CCOc1cc(-c2ccc(F)cc2)nc2cc(C(=O)NCc3ccc4ncnn4c3)ccc12 [Compound I-84]",
    "ASSAYED SYSTEM": "hNAMPT protein (Homo sapiens (Human))",
    "inhibition at 1 µM": "99%"
  },
  {
    "COMPOUND": "CCOc1cc(-c2ccc(F)cc2)nc2cc(C(=O)NCCc3nnc(N)[nH]3)ccc12 [Compound I-142]",
    "ASSAYED SYSTEM": "hNAMPT protein (Homo sapiens (Human))",
    "inhibition at 1 µM": "89%"
  },
  {
    "COMPOUND": "CCOc1cc(-c2ccc(=O)n(C)c2)nc2cc(C(=O)NCCc3[nH]nnc3C)ccc12 [Compound I-76]",
    "ASSAYED SYSTEM": "hNAMPT protein (Homo sapiens (Human))",
    "inhibition at 1 µM": "93%"
  }
]

###

Attribute: viability at 1.667 µM
- System: PC3 cells
- EXPERIMENT NOTES: PC3 growth inhibition (Cell-titer glo, 72 hours)
- Assay type: cell-based
- CONDITIONS USED: Homo sapiens, PC-3, 72 h, read-out: Percent Viability, PC3 cells, compound concentration 1.667 μM, 72 hours

[
  {
    "STRUCTURE AS SMILES": "CCOc1cc(-c2ccc(F)cc2)nc2cc(C(=O)NCCc3cc(N)[nH]n3)ccc12",
    "ASSAYED SYSTEM": "PC3 cells",
    "viability at 1.667 µM, %": 3
  },
  {
    "STRUCTURE AS SMILES": "CCOc1cc(-c2ccnc(C(F)(F)F)c2)nc2cc(C(=O)NCCCc3nnc[nH]3)ccc12",
    "ASSAYED SYSTEM": "PC3 cells",
    "viability at 1.667 µM, %": 2
  },
  {
    "STRUCTURE AS SMILES": "CCOc1cc(-c2cccnc2OC)nc2cc(C(=O)NCCc3nnc[nH]3)ccc12",
    "ASSAYED SYSTEM": "PC3 cells",
    "viability at 1.667 µM, %": 2
  },
  {
    "STRUCTURE AS SMILES": "CCOc1nc(-c2ccc(Cl)cc2)nc2cc(C(=O)NCCCc3ncc[nH]3)ccc12",
    "ASSAYED SYSTEM": "PC3 cells",
    "viability at 1.667 µM, %": 2
  },
  {
    "STRUCTURE AS SMILES": "CCOc1cc(-c2ccnc(OC)c2)nc2cc(C(=O)NCCCc3[nH]nnc3C)ccc12",
    "ASSAYED SYSTEM": "PC3 cells",
    "viability at 1.667 µM, %": 2
  },
  {
    "STRUCTURE AS SMILES": "CCOc1cc(-c2ccnc(C)c2)nc2cc(C(=O)NCc3ccc4ncnn4c3)ccc12",
    "ASSAYED SYSTEM": "PC3 cells",
    "viability at 1.667 µM, %": 1
  },
  {
    "STRUCTURE AS SMILES": "CCOc1cc(-c2ccc(F)cc2)nc2cc(C(=O)NCCc3cn(C)cn3)ccc12",
    "ASSAYED SYSTEM": "PC3 cells",
    "viability at 1.667 µM, %": 1
  },
  {
    "STRUCTURE AS SMILES": "CC(C)Cc1nc(-c2ccc(Cl)cc2)nc2cc(C(=O)NCCCc3ncc[nH]3)ccc12",
    "ASSAYED SYSTEM": "PC3 cells",
    "viability at 1.667 µM, %": 0
  },
  {
    "STRUCTURE AS SMILES": "CCOc1cc(-c2ccc(F)c(Cl)c2)nc2cc(C(=O)NCCCc3ncc[nH]3)ccc12",
    "ASSAYED SYSTEM": "PC3 cells",
    "viability at 1.667 µM, %": 1
  },
  {
    "STRUCTURE AS SMILES": "CCOc1cc(-c2ccc(OC)nc2)nc2cc(C(=O)NCCc3[nH]nnc3C)ccc12",
    "ASSAYED SYSTEM": "PC3 cells",
    "viability at 1.667 µM, %": 1
  },
  {
    "STRUCTURE AS SMILES": "CCOc1cc(-c2cnc(OC)cc2C)nc2cc(C(=O)NCCCc3nnc[nH]3)ccc12",
    "ASSAYED SYSTEM": "PC3 cells",
    "viability at 1.667 µM, %": 2
  },
  {
    "STRUCTURE AS SMILES": "CCOc1cc(-c2ccc(C)nc2OC)nc2cc(C(=O)NCc3nc4cnccc4[nH]3)ccc12",
    "ASSAYED SYSTEM": "PC3 cells",
    "viability at 1.667 µM, %": 1
  },
  {
    "STRUCTURE AS SMILES": "CCOc1cc(-c2ccc(OC)nc2)nc2cc(C(=O)NCCCc3[nH]nnc3C)ccc12",
    "ASSAYED SYSTEM": "PC3 cells",
    "viability at 1.667 µM, %": 2
  },
  {
    "STRUCTURE AS SMILES": "CCOc1cc(-c2cccnc2OC)nc2cc(C(=O)NCCCc3cnn[nH]3)ccc12",
    "ASSAYED SYSTEM": "PC3 cells",
    "viability at 1.667 µM, %": 2
  },
  {
    "STRUCTURE AS SMILES": "CCOc1nc(-c2ccc(F)cc2)nc2cc(C(=O)NCCCc3cncnc3)ccc12",
    "ASSAYED SYSTEM": "PC3 cells",
    "viability at 1.667 µM, %": 1
  },
  {
    "STRUCTURE AS SMILES": "CCOc1nc(-c2ccc(F)cc2)nc2cc(C(=O)NCCCc3ccnnc3)ccc12",
    "ASSAYED SYSTEM": "PC3 cells",
    "viability at 1.667 µM, %": 1
  },
  {
    "STRUCTURE AS SMILES": "CCOc1cc(-c2ccnc(C)c2)nc2cc(C(=O)NCCc3c[nH]nc3C)ccc12",
    "ASSAYED SYSTEM": "PC3 cells",
    "viability at 1.667 µM, %": 2
  },
  {
    "STRUCTURE AS SMILES": "CCCc1cc(OCC)c2ccc(C(=O)NCCCc3ncc[nH]3)cc2n1",
    "ASSAYED SYSTEM": "PC3 cells",
    "viability at 1.667 µM, %": 14
  },
  {
    "STRUCTURE AS SMILES": "CCOc1cc(-c2ccc(OC)nc2)nc2cc(C(=O)NCCc3nc[nH]n3)ccc12",
    "ASSAYED SYSTEM": "PC3 cells",
    "viability at 1.667 µM, %": 4
  },
  {
    "STRUCTURE AS SMILES": "CCOc1cc(-c2cccnc2OC)nc2cc(C(=O)NCCc3cnn[nH]3)ccc12",
    "ASSAYED SYSTEM": "PC3 cells",
    "viability at 1.667 µM, %": 5
  },
  {
    "STRUCTURE AS SMILES": "CCN(C)c1nc(-c2ccc(F)cc2)nc2cc(C(=O)NCCCc3ncc[nH]3)ccc12",
    "ASSAYED SYSTEM": "PC3 cells",
    "viability at 1.667 µM, %": 2
  },
  {
    "STRUCTURE AS SMILES": "CC(C)Cc1nc(-c2ccc(Cl)s2)nc2cc(C(=O)NCCCc3ncc[nH]3)ccc12",
    "ASSAYED SYSTEM": "PC3 cells",
    "viability at 1.667 µM, %": 1
  },
  {
    "STRUCTURE AS SMILES": "CCOc1cc(-c2ccnc(OC)c2)nc2cc(C(=O)NCCc3nnc[nH]3)ccc12",
    "ASSAYED SYSTEM": "PC3 cells",
    "viability at 1.667 µM, %": 10
  },
  {
    "STRUCTURE AS SMILES": "CCOc1cc(-c2ccc(F)cc2)nc2cc(C(=O)NCc3nc4cnccc4n3C)ccc12",
    "ASSAYED SYSTEM": "PC3 cells",
    "viability at 1.667 µM, %": 2
  },
  {
    "STRUCTURE AS SMILES": "CCOc1cc(-c2ccc(C)s2)nc2cc(C(=O)NCCCc3nnc[nH]3)ccc12",
    "ASSAYED SYSTEM": "PC3 cells",
    "viability at 1.667 µM, %": 3
  },
  {
    "STRUCTURE AS SMILES": "CCOc1cc(-c2cccnc2C)nc2cc(C(=O)NCCCc3nnc[nH]3)ccc12",
    "ASSAYED SYSTEM": "PC3 cells",
    "viability at 1.667 µM, %": 1
  },
  {
    "STRUCTURE AS SMILES": "CCOc1cc(-c2ccc(F)cc2OC)nc2cc(C(=O)NCCCc3cc[nH]n3)ccc12",
    "ASSAYED SYSTEM": "PC3 cells",
    "viability at 1.667 µM, %": 2
  },
  {
    "STRUCTURE AS SMILES": "CCOc1cc(-c2ccc(C)nc2)nc2cc(C(=O)NCCCc3[nH]nnc3C)ccc12",
    "ASSAYED SYSTEM": "PC3 cells",
    "viability at 1.667 µM, %": 2
  },
  {
    "STRUCTURE AS SMILES": "CCOc1cc(-c2ccnc(C)c2)nc2cc(C(=O)NCCCc3[nH]nnc3C)ccc12",
    "ASSAYED SYSTEM": "PC3 cells",
    "viability at 1.667 µM, %": 1
  },
  {
    "STRUCTURE AS SMILES": "CCOc1cc(C2CCOCC2)nc2cc(C(=O)NCCCc3nnc[nH]3)ccc12",
    "ASSAYED SYSTEM": "PC3 cells",
    "viability at 1.667 µM, %": 4
  },
  {
    "STRUCTURE AS SMILES": "CCOc1cc(-c2cc(C)nc(OC)c2)nc2cc(C(=O)NCCCc3nnc[nH]3)ccc12",
    "ASSAYED SYSTEM": "PC3 cells",
    "viability at 1.667 µM, %": 2
  },
  {
    "STRUCTURE AS SMILES": "CCOCc1nc(-c2ccc(Cl)cc2)nc2cc(C(=O)NCCCc3ncc[nH]3)ccc12",
    "ASSAYED SYSTEM": "PC3 cells",
    "viability at 1.667 µM, %": 1
  }
]
